tested on: Mycobacterium tuberculosis Erdman (autoluminescent); assay: total FIC90 (Loewe) at 90% inhibition, three-drug combination (log2); higher = more antagonistic; conditions: in vitro model: dormancy (butyrate + nitrate, low O2); time point: terminal (~4-5 doublings, model-specific)
REPORTED PROPERTY: total FIC90
One number for each entry.

Solved cases below.
[
  {
    "COMPOUND": "COc1nc2ccc(Br)cc2cc1[C@@H](c1ccccc1)[C@@](O)(CCN(C)C)c1cccc2ccccc12 [bedaquiline] + CC(=O)NC[C@H]1CN(c2ccc(N3CCOCC3)c(F)c2)C(=O)O1 [linezolid] + CO[C@H]1/C=C/O[C@@]2(C)Oc3c(C)c(O)c4c(O)c(c(/C=N/N5CCN(C)CC5)c(O)c4c3C2=O)NC(=O)/C(C)=C\\C=C\\[C@H](C)[C@H](O)[C@@H](C)[C@@H](O)[C@@H](C)[C@H](OC(C)=O)[C@@H]1C [rifampicin]",
    "total FIC90": 0.748
  },
  {
    "COMPOUND": "COc1nc2ccc(Br)cc2cc1[C@@H](c1ccccc1)[C@@](O)(CCN(C)C)c1cccc2ccccc12 [bedaquiline] + NNC(=O)c1ccncc1 [isoniazid] + CO[C@H]1/C=C/O[C@@]2(C)Oc3c(C)c(O)c4c(O)c(c(/C=N/N5CCN(C)CC5)c(O)c4c3C2=O)NC(=O)/C(C)=C\\C=C\\[C@H](C)[C@H](O)[C@@H](C)[C@@H](O)[C@@H](C)[C@H](OC(C)=O)[C@@H]1C [rifampicin]",
    "total FIC90": 0.0703
  }
]

Batch of 3 compounds: report total FIC90 for each.
1. NNC(=O)c1ccncc1 [isoniazid] + O=[N+]([O-])c1cn2c(n1)OC[C@@H](OCc1ccc(OC(F)(F)F)cc1)C2 [pretomanid] + NC(=O)c1cnccn1 [pyrazinamide]
2. NNC(=O)c1ccncc1 [isoniazid] + CC(=O)NC[C@H]1CN(c2ccc(N3CCOCC3)c(F)c2)C(=O)O1 [linezolid] + CO[C@H]1/C=C/O[C@@]2(C)Oc3c(C)c(O)c4c(O)c(c(/C=N/N5CCN(C)CC5)c(O)c4c3C2=O)NC(=O)/C(C)=C\C=C\[C@H](C)[C@H](O)[C@@H](C)[C@@H](O)[C@@H](C)[C@H](OC(C)=O)[C@@H]1C [rifampicin]
3. CC(C)/N=c1\cc2n(-c3ccc(Cl)cc3)c3ccccc3nc-2cc1Nc1ccc(Cl)cc1 [clofazimine] + O=[N+]([O-])c1cn2c(n1)OC[C@@H](OCc1ccc(OC(F)(F)F)cc1)C2 [pretomanid] + CO[C@H]1/C=C/O[C@@]2(C)Oc3c(C)c(O)c4c(O)c(c(/C=N/N5CCN(C)CC5)c(O)c4c3C2=O)NC(=O)/C(C)=C\C=C\[C@H](C)[C@H](O)[C@@H](C)[C@@H](O)[C@@H](C)[C@H](OC(C)=O)[C@@H]1C [rifampicin]

1. -0.122
2. 0.0283
3. -0.477

###

system: Mycobacterium tuberculosis Erdman (autoluminescent); experiment: Einf, fitted maximum growth inhibition of combination (fraction); higher = stronger maximal inhibition; conditions: in vitro model: valerate; time point: terminal (~4-5 doublings, model-specific)
REPORTED PROPERTY: Einf
One number for each entry.

Okay, here is my list. What is Einf for each of these?
1. COc1c(N2C[C@@H]3CCCN[C@@H]3C2)c(F)cc2c(=O)c(C(=O)O)cn(C3CC3)c12 [moxifloxacin] + O=[N+]([O-])c1cn2c(n1)OC[C@@H](OCc1ccc(OC(F)(F)F)cc1)C2 [pretomanid]
2. CC(C)/N=c1\cc2n(-c3ccc(Cl)cc3)c3ccccc3nc-2cc1Nc1ccc(Cl)cc1 [clofazimine] + CC[C@@H](CO)NCCN[C@@H](CC)CO [ethambutol]
3. CC[C@@H](CO)NCCN[C@@H](CC)CO [ethambutol] + NNC(=O)c1ccncc1 [isoniazid]
4. NNC(=O)c1ccncc1 [isoniazid] + CO[C@H]1/C=C/O[C@@]2(C)Oc3c(C)c(O)c4c(O)c(c(/C=N/N5CCN(C6CCCC6)CC5)c(O)c4c3C2=O)NC(=O)/C(C)=C\C=C\[C@H](C)[C@H](O)[C@@H](C)[C@@H](O)[C@@H](C)[C@H](OC(C)=O)[C@@H]1C [rifapentine]
5. COc1c(N2C[C@@H]3CCCN[C@@H]3C2)c(F)cc2c(=O)c(C(=O)O)cn(C3CC3)c12 [moxifloxacin] + CO[C@H]1/C=C/O[C@@]2(C)Oc3c(C)c(O)c4c(O)c(c(/C=N/N5CCN(C)CC5)c(O)c4c3C2=O)NC(=O)/C(C)=C\C=C\[C@H](C)[C@H](O)[C@@H](C)[C@@H](O)[C@@H](C)[C@H](OC(C)=O)[C@@H]1C [rifampicin]
6. CC(=O)NC[C@H]1CN(c2ccc(N3CCOCC3)c(F)c2)C(=O)O1 [linezolid] + NC(=O)c1cnccn1 [pyrazinamide]
7. CC(=O)NC[C@H]1CN(c2ccc(N3CCOCC3)c(F)c2)C(=O)O1 [linezolid] + CO[C@H]1/C=C/O[C@@]2(C)Oc3c(C)c(O)c4c(O)c(c(/C=N/N5CCN(C)CC5)c(O)c4c3C2=O)NC(=O)/C(C)=C\C=C\[C@H](C)[C@H](O)[C@@H](C)[C@@H](O)[C@@H](C)[C@H](OC(C)=O)[C@@H]1C [rifampicin]

1: 0.968; 2: 0.913; 3: 0.935; 4: 0.928; 5: 0.925; 6: 0.892; 7: 0.945

Required: Einf, one value per molecule below.
1. CC(C)/N=c1\cc2n(-c3ccc(Cl)cc3)c3ccccc3nc-2cc1Nc1ccc(Cl)cc1 [clofazimine] + COc1c(N2C[C@@H]3CCCN[C@@H]3C2)c(F)cc2c(=O)c(C(=O)O)cn(C3CC3)c12 [moxifloxacin]
2. CC(=O)NC[C@H]1CN(c2ccc(N3CCOCC3)c(F)c2)C(=O)O1 [linezolid] + COc1c(N2C[C@@H]3CCCN[C@@H]3C2)c(F)cc2c(=O)c(C(=O)O)cn(C3CC3)c12 [moxifloxacin]

1. 0.941
2. 0.932

###

test system: Mycobacterium tuberculosis Erdman (autoluminescent); experiment: Einf, fitted maximum growth inhibition of combination (fraction); higher = stronger maximal inhibition; details: in vitro model: dormancy (butyrate + nitrate, low O2); time point: constant (~7 days, model-specific)
Exercise: for every item that follows, state its recorded Einf.
Answers are plain numbers.

Give Einf for each listed item.
1. CC[C@@H](CO)NCCN[C@@H](CC)CO [ethambutol] + O=[N+]([O-])c1cn2c(n1)OC[C@@H](OCc1ccc(OC(F)(F)F)cc1)C2 [pretomanid]
2. NNC(=O)c1ccncc1 [isoniazid] + O=[N+]([O-])c1cn2c(n1)OC[C@@H](OCc1ccc(OC(F)(F)F)cc1)C2 [pretomanid]
3. CC[C@@H](CO)NCCN[C@@H](CC)CO [ethambutol] + CC(=O)NC[C@H]1CN(c2ccc(N3CCOCC3)c(F)c2)C(=O)O1 [linezolid]

0.835
0.909
0.811

###

tested on: Mycobacterium tuberculosis Erdman (autoluminescent); assay: total FIC50 (Loewe) at 50% inhibition, three-drug combination (log2); higher = more antagonistic; conditions: in vitro model: dormancy (butyrate + nitrate, low O2); time point: terminal (~4-5 doublings, model-specific)
REPORTED PROPERTY: total FIC50

Some entries whose results are on file:
[
  {
    "MOLECULE": "COc1nc2ccc(Br)cc2cc1[C@@H](c1ccccc1)[C@@](O)(CCN(C)C)c1cccc2ccccc12 [bedaquiline] + CC(=O)NC[C@H]1CN(c2ccc(N3CCOCC3)c(F)c2)C(=O)O1 [linezolid] + CO[C@H]1/C=C/O[C@@]2(C)Oc3c(C)c(O)c4c(O)c(c(/C=N/N5CCN(C)CC5)c(O)c4c3C2=O)NC(=O)/C(C)=C\\C=C\\[C@H](C)[C@H](O)[C@@H](C)[C@@H](O)[C@@H](C)[C@H](OC(C)=O)[C@@H]1C [rifampicin]",
    "total FIC50": 0.272
  },
  {
    "MOLECULE": "COc1c(N2C[C@@H]3CCCN[C@@H]3C2)c(F)cc2c(=O)c(C(=O)O)cn(C3CC3)c12 [moxifloxacin] + O=[N+]([O-])c1cn2c(n1)OC[C@@H](OCc1ccc(OC(F)(F)F)cc1)C2 [pretomanid] + CO[C@H]1/C=C/O[C@@]2(C)Oc3c(C)c(O)c4c(O)c(c(/C=N/N5CCN(C)CC5)c(O)c4c3C2=O)NC(=O)/C(C)=C\\C=C\\[C@H](C)[C@H](O)[C@@H](C)[C@@H](O)[C@@H](C)[C@H](OC(C)=O)[C@@H]1C [rifampicin]",
    "total FIC50": 0.662
  },
  {
    "MOLECULE": "CC(=O)NC[C@H]1CN(c2ccc(N3CCOCC3)c(F)c2)C(=O)O1 [linezolid] + COc1c(N2C[C@@H]3CCCN[C@@H]3C2)c(F)cc2c(=O)c(C(=O)O)cn(C3CC3)c12 [moxifloxacin] + NC(=O)c1cnccn1 [pyrazinamide]",
    "total FIC50": 0.786
  }
]

Consider the additional molecule presented here.
# get_value(readout= total FIC50, system= Mycobacterium tuberculosis Erdman (autoluminescent)) for CC[C@@H](CO)NCCN[C@@H](CC)CO [ethambutol] + NNC(=O)c1ccncc1 [isoniazid] + CO[C@H]1/C=C/O[C@@]2(C)Oc3c(C)c(O)c4c(O)c(c(/C=N/N5CCN(C6CCCC6)CC5)c(O)c4c3C2=O)NC(=O)/C(C)=C\C=C\[C@H](C)[C@H](O)[C@@H](C)[C@@H](O)[C@@H](C)[C@H](OC(C)=O)[C@@H]1C [rifapentine] 0.00837
